Provenance of the data: BindingDB's records for doi:10.1016/j.bmcl.2009.04.143

experiment: Inhibition of HER2 extracellular domain sheddase activity in human BT474 cells after 72 hrs by ELISA
pIC50: −log10 of the molar value.
PROPERTY_NAME: pIC50

Please review the following examples before continuing.
# query: pIC50 of entry O=C(NO)[C@H]1CC(CC(=O)N2CC[C@@H](O)C2)CC[C@@H]1C(=O)N1CCN(c2ccccc2)CC1 (mixture of isomers)
6.65

# query: pIC50 of entry CN1CC(CC(=O)N2CCCCC2)C[C@H](C(=O)NO)[C@H]1C(=O)N1CCN(c2ccccc2)CC1 (mixture of isomers)
6.99

# query: pIC50 of entry "O=C(NO)[C@H]1CC2(CC[C@@H]1C(=O)N1CCN(c3ccccc3)CC1)CC2"
7.00

P. O=C(NO)[C@H]1CC(CC(=O)N2CCOCC2)CC[C@@H]1C(=O)N1CCN(c2ccccc2)CC1 (mixture of isomers)
Q. O=C(NO)[C@H]1CC(CC(=O)N2CCCC2)CN[C@@H]1C(=O)N1CCN(c2ccccc2)CC1 (mixture of isomers)
R. CN1CCN(C(=O)CC2CC[C@H](C(=O)N3CCN(c4ccccc4)CC3)[C@@H](C(=O)NO)C2)CC1 (mixture of isomers)
Would you mind ranking these compounds by ascending pIC50? Provide the ranking by listing each label in its place in the requested order.
P, R, Q
(P: 6.68, R: 7.00, Q: 7.55)
